Tgt: Muscarinic acetylcholine receptor M2 (Rattus norvegicus)
Sequence (P10980 whole entry): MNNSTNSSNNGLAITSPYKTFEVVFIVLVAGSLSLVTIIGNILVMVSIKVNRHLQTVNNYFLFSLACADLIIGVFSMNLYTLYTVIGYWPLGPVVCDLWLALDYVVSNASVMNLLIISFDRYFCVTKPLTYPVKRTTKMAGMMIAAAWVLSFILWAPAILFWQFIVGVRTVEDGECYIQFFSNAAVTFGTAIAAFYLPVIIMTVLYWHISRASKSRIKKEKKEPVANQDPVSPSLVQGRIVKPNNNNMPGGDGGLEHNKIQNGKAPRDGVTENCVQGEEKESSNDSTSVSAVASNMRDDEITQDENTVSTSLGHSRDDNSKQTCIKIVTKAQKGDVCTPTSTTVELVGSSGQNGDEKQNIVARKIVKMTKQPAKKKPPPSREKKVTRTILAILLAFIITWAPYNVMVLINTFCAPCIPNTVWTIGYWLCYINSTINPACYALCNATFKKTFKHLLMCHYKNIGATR
Record form. Attribute: pKi. Fill in for each entry.
By convention, pKi is the negative base-10 log of a molar concentration.

Q: Please look up its pKi: "O=C1CCCN1CC#CCN1CCCC1"
A: 6.30

Q: Please look up its pKi: "CC(C)[N+](C)(CCC(C(N)=O)(c1ccccc1)c1ccccc1)C(C)C"
A: 9.00
